Target: T1, Peptide-biotin
T1 construct: also called antigen
T1 sequence (Q8TD43 other isoform, or with tags, fused parts or gaps): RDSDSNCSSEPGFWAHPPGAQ
Measurement Notes: SPR Biacore 8K, purified IgG Fc-captured, Peptide-biotin analyte, 1:1 fit
Measured Endpoint: pKd
pKd here: minus log base 10 of the concentration, concentration in moles per litre.

Here is how some binders turned out for pKd.
{"Binder": "anti-TRPM4 chimeric antibody clone A1 (VH + VL) (antibody, V domains shown, also called VH + VL (A1)) VH: QVQLQESGPGLVKPSQSLSLTCTVTGYSITSDYAWNWIRQFPGNKLQWMGYLSYSGVTSYNPSLKGRISITRDTSKNQFFLQLSSVTPEDTATYYCARKGTYYRYEGSYWYFDVWGAGTTVTVSS VL: DIQMNQSPSSLSASLGDTITITCHANQNIDVWLSWYQQKPGNVPKLLIYKTSNLHTGVPSRFSGSGSGTDFTLTISSLQPEDIATYYCQQGQSYPLTFGGGTKLEIK", "pKd": 8.76}
{"Binder": "humanized anti-TRPM4 antibody clone A4 (VH1 + VL3) (antibody, V domains shown, Full-length IgG, IgG1 heavy chain; also called VH1 + VL3 (A4)) VH: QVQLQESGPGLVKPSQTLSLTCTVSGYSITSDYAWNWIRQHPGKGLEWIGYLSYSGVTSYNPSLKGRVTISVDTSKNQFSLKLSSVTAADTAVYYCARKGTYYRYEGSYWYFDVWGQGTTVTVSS VL: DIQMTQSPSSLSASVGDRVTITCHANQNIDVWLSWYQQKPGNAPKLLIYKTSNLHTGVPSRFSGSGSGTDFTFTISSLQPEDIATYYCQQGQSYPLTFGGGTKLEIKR", "pKd": 8.50}

Please report the recorded pKd for humanized anti-TRPM4 antibody clone A6 (VH2 + VL1) (antibody, V domains shown, Full-length IgG, IgG1 heavy chain; also called VH2 + VL1 (A6)) VH: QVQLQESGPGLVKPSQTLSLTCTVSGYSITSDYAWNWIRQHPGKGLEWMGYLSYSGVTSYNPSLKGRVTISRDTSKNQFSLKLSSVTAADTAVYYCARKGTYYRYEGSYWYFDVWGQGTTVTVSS VL: DIQMTQSPSSLSASVGDRVTITCHANQNIDVWLSWYQQKPGKAPKLLIYKTSNLHTGVPSRFSGSGSGTDFTFTISSLQPEDIATYYCQQGQSYPLTFGGGTKLEIKR .
8.40

Now the same for humanized anti-TRPM4 antibody clone A2 (VH1 + VL1) (antibody, human IgG1, kappa, V domains shown, also called VH1 + VL1 (A2)) VH: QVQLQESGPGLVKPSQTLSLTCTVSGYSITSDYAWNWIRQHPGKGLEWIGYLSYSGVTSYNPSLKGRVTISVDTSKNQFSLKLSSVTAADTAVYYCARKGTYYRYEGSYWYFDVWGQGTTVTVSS VL: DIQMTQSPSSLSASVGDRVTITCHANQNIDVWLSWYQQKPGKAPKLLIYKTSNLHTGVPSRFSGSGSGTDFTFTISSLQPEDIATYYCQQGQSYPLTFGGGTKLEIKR
8.50
